# target: System xC^- cystine/glutamate antiporter (SXC) (Rattus norvegicus)
# Sequence (A0A8I6AB70 1-502): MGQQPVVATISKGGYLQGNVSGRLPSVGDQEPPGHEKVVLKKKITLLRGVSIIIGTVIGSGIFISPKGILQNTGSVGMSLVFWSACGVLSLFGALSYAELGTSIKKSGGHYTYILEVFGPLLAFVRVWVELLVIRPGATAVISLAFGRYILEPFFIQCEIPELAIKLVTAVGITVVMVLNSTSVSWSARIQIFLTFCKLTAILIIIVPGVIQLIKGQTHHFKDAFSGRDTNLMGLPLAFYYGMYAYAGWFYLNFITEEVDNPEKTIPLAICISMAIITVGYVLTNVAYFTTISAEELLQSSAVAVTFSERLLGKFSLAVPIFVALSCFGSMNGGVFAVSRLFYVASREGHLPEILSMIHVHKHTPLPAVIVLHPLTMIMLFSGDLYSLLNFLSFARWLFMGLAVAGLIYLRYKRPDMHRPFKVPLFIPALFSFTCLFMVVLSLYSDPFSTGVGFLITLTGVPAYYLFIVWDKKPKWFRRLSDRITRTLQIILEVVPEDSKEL
# Sequence (Q794F9 whole entry partner): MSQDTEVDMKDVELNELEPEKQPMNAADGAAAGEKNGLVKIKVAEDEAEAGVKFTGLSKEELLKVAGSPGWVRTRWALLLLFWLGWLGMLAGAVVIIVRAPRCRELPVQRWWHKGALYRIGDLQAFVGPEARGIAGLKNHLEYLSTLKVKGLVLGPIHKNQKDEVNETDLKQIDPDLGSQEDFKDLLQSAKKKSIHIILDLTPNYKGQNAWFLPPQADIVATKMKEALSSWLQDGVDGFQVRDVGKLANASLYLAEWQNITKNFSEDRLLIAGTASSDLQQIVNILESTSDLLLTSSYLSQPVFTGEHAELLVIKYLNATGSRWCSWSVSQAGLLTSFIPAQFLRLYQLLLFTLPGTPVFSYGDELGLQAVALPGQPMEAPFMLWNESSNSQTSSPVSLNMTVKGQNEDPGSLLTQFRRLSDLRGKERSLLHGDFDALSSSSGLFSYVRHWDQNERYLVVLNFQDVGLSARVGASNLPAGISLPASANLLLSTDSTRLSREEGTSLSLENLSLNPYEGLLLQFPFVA
# protocolNotes: LPS-induced glutamate release from primary microglia
# Type: cell-based
# experimentalConditions: LPS-treated rat primary microglia
endpointName: Inhibition of LPS-induced glutamate release (result in words)

Please supply the value of reported Inhibition of LPS-induced glutamate release (result in words) for the item N[C@H](C(=O)O)c1ccc(C(=O)O)cc1 [S-4CPG, (S)-4-carboxyphenyl glycine]
blocked

Please supply the value of reported Inhibition of LPS-induced glutamate release (result in words) for the item `O=C(O)c1cc(/N=N/c2ccc(S(=O)(=O)Nc3ccccn3)cc2)ccc1O`
blocked

Please supply the value of reported Inhibition of LPS-induced glutamate release (result in words) for the item CCOc1ccccc1-n1c(C(C)N2CCN(C(=O)COc3ccc(Cl)cc3)CC2)nc2ccccc2c1=O (stereo not drawn)
blocked
